target: CXCR4 (Homo sapiens); construct: all endogenously expressing CXCR4; endogenous in cells; IL-2 stimulated human lymphocytes; assay: chemotaxis assay or 125I SDF-1α binding assay for CXCR4; settings: first or only activity listed, read-out: CXCR4 activity (IC50 class)
Reported Property: IC50

In the examples that follow, each entry is paired with its recorded IC50.
Cc1ccc(-c2ccc3ccn(CC(=O)NCCN(C)C4CCCCC4)c3c2)c(F)c1; < 1000 nM
CN(CCNC(=O)Cn1ccc2ccc(-c3ccc(Cl)cc3)cc21)C1CCCCC1; < 1000 nM
Cc1ccc(-c2ccc3ccn(CC(=O)NCCN4CCC[C@@H]5CCCC[C@H]54)c3c2)cc1; < 1000 nM

Query :: Give the measured IC50 of CN(CCNC(=O)Cc1c[nH]c2ccccc12)C1CCCCC1 .
Result :: 1000 to 10000 nM

Query :: Give the measured IC50 of Cc1ccc(-c2ccc3c(ccn3CC(=O)NCCN(C)C3CCCCC3)c2)cc1 .
Result :: < 1000 nM

Query :: Give the measured IC50 of CN(CCNC(=O)Cn1ccc2ccc(-c3cnc4ccccc4c3)cc21)C1CCCCC1 .
Result :: < 1000 nM

Query :: Give the measured IC50 of Cc1ccc(-c2ccc3c(C4=CCCC=C4)nn(CC(=O)NCCN(C)C4CCCCC4)c3c2)cc1 .
Result :: 1000 to 10000 nM

Query :: Give the measured IC50 of COC(=O)c1cc2ccc(-c3ccc(C)cc3)cc2n1CC(=O)NCCN(C)C1CCCCC1 .
Result :: < 1000 nM

Query :: Give the measured IC50 of Cc1ccc(-c2ccc3cnn(CC(=O)NCCN(C)C4CCCCC4)c3c2)cc1 .
Result :: < 1000 nM

----------
molecular target: CXCR4 (Homo sapiens); construct: all endogenously expressing CXCR4; endogenous in cells; IL-2 stimulated human lymphocytes; test: chemotaxis assay or 125I SDF-1α binding assay for CXCR4; settings: first or only activity listed, read-out: CXCR4 activity (IC50 class)
Here the recorded IC50 is given for each entry.

In the examples that follow, each entry is paired with its recorded IC50.
CN(CCCNC(=O)Cn1ccc2cccc(-c3ccc(F)cc3)c21)C1CCCCC1; < 1000 nM
CN(CCNC(=O)Cn1ccc2ccc(-c3ccc(C(N)=O)cc3)cc21)C1CCCCC1; < 1000 nM
CCc1ccc(-c2ccc3ccn(CC(=O)NCCN(C)C4CCCCC4)c3c2)cc1; < 1000 nM
Cc1ccc(-c2ccc3ccn(CC(=O)NC(C)CN4CCCC4)c3c2)cc1 (stereo not drawn); < 1000 nM
Cc1ccc(-c2ccc3ccn(CC(=O)NCCN(C)C4CCCCC4)c3c2)cc1; < 1000 nM
CN(CCNC(=O)Cn1ncc2ccccc21)C1CCCCC1; > 10000 nM
Cc1ccc(-c2ccc3ccn(CC(=O)NC(C)(C)CN4CCCC4)c3c2)cc1; 1000 to 10000 nM
Cc1ccc(-c2ccc3ccn(CC(=O)NCCN4CCCCC4C)c3c2)cc1 (stereo not drawn); < 1000 nM

Would you kindly look at the next entry?
Query :: Give the measured IC50 of CN(CCNC(=O)Cn1ccc2ccc(-c3ccccc3)cc21)C1CCCCC1 .
Result :: < 1000 nM

----------
target: CXCR4 (Homo sapiens, UniProt P61073); construct: all endogenously expressing CXCR4; endogenous in cells; IL-2 stimulated human lymphocytes; experiment: chemotaxis assay or 125I SDF-1α binding assay for CXCR4; conditions: first or only activity listed, read-out: CXCR4 activity (IC50 class)
Sequence (P61073 whole entry): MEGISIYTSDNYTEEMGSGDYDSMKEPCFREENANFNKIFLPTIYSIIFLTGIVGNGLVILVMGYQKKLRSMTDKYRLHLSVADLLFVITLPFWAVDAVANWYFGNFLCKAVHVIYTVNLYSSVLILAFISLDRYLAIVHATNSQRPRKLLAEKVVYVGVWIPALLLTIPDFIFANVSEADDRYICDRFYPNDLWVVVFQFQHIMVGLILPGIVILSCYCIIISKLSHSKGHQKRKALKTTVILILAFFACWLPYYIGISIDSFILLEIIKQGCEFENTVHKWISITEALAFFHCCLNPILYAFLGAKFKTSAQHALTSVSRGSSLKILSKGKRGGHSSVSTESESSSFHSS
Reported Property: IC50

In the examples that follow, each entry is paired with its recorded IC50.
Cc1ccc(-c2ccc3ccn(CC(=O)NCCN(C)C4CCCCC4)c3c2)cc1C; < 1000 nM
CN(CCNC(=O)Cn1ncc2c1CCCC2)C1CCCCC1; > 10000 nM
CN(C)c1ccc(-c2ccc3ccn(CC(=O)NCCN(C)C4CCCCC4)c3c2)cc1; < 1000 nM
CN(CCNC(=O)Cn1cnc2ncccc21)C1CCCCC1; 1000 to 10000 nM
CN(CCNC(=O)Cn1nc(Cl)c2ccccc21)C1CCCCC1; 1000 to 10000 nM
COc1cc(-c2ccc(C)cc2)cc2c1ccn2CC(=O)NCCN(C)C1CCCCC1; < 1000 nM
CN(CCNC(=O)Cn1ccc2ccc(-c3cccc(C#N)c3)cc21)C1CCCCC1; 1000 to 10000 nM
CN(CCNC(=O)Cn1cnc2c1CCOC2)C1CCCCC1; > 10000 nM

Query :: Give the measured IC50 of CN(CCNC(=O)Cn1ccc2ccc(-c3ccncc3)cc21)C1CCCCC1 .
Result :: < 1000 nM

Query :: Give the measured IC50 of Cc1ccc(-c2ccc3ccn(CC(=O)NCCN4CCC(C)CC4)c3c2)cc1 .
Result :: < 1000 nM
